Assay: Plasma pharmacokinetics after single ascending doses of LED-E (VNRX-7145-101 Part 1)
Format: in vivo
Conditions: human, oral, single dose LED-E 800 mg, geometric mean (CV %)
Measurement label: Cmax (ng/mL)
Express the result in ng/mL but write the number alone.

• CCC(=O)N[C@H]1Cc2cccc(C(=O)OCOC(=O)C(CC)CC)c2OB1O [Ledaborbactam etzadroxil] = 1160

Field request: Cmax | item: CCC(=O)N[C@H]1Cc2cccc(C(=O)O)c2OB1O [Ledaborbactam, ledaborbactam] 24000

* * *

Experiment: Plasma pharmacokinetics after single ascending doses of LED-E (VNRX-7145-101 Part 1)
Type: in vivo
Details: human, oral, 1000 mg, single dose LED-E 1,000 mg, median (range)
Experimental: Quantitation used separate weighted 1 /x^2 linear least-squares regression analyses generated from calibration standards. Exploratory screening for metabolites was performed for some samples. […] Single-dose plasma pharmacokinetic parameters were determined in Part 1, and both single-dose (Day 1) and multiple-dose ([…]) parameters were determined in Part 2. […]
Measurement label: Tmax

Sample `CCC(=O)N[C@H]1Cc2cccc(C(=O)O)c2OB1O` — what was its Tmax? 2 h

* * *

Assay: Plasma pharmacokinetics on Day 10 after multiple doses of CTB + LED-E q8h (VNRX-7145-102 Part 3)
Conditions: human, oral, Cmax, Day 10, CTB 400 mg + LED-E 500 mg q8h, geometric mean (CV %)
Measurement label: Cmax (ng/mL)
Note: unit ng/mL is implicit; provide only the numeric part.

- CCC(=O)N[C@H]1Cc2cccc(C(=O)O)c2OB1O: 16200

# input compound: `CCC(=O)N[C@H]1Cc2cccc(C(=O)OCOC(=O)C(CC)CC)c2OB1O` ; wanted: its Cmax 1180

* * *

Each record here notes measured Cmax.
Experiment: Plasma pharmacokinetics on Day 10 after multiple doses of LED-E q8h (VNRX-7145-101 Part 2, VNRX-7145-102 Part 2)
Assay type: in vivo, human
Details: human, oral; Day 10, LED-E 150 mg q8h; plasma; geometric mean (CV %)
State just the number; it will be interpreted in ng/mL.

Recorded Cmax for `CCC(=O)N[C@H]1Cc2cccc(C(=O)OCOC(=O)C(CC)CC)c2OB1O` , please? 447

Query: Cmax; subject: `CCC(=O)N[C@H]1Cc2cccc(C(=O)O)c2OB1O` 5870

* * *

Test: Plasma pharmacokinetics after single ascending doses of LED-E (VNRX-7145-101 Part 1)
Type: in vivo
Conditions: human, oral, 1000 mg, single dose LED-E 1,000 mg, geometric mean (CV %), read-out: Vz/F
Measurement label: Vd/F (L)
The answer is to be given in L; state only the numeric part.

Data request, read-out Vd/F, for CCC(=O)N[C@H]1Cc2cccc(C(=O)OCOC(=O)C(CC)CC)c2OB1O [Ledaborbactam etzadroxil] 2880

* * *

Assay: Plasma pharmacokinetics after single ascending doses of LED-E (VNRX-7145-101 Part 1)
Format: in vivo
Conditions: human, oral, single dose LED-E 500 mg, geometric mean (CV %)
The compounds listed here are annotated with their Cmax.
Kindly provide the numeric value in ng/mL only, without the unit symbol.

• CCC(=O)N[C@H]1Cc2cccc(C(=O)O)c2OB1O = 16800

Next item in the queue.
Reported Cmax for `CCC(=O)N[C@H]1Cc2cccc(C(=O)OCOC(=O)C(CC)CC)c2OB1O` : what is it? 917

* * *

Assay: Plasma pharmacokinetics on Day 10 after multiple doses of CTB + LED-E q8h (VNRX-7145-102 Part 3)
Conditions: human, oral, Tmax, Day 10, CTB 400 mg + LED-E 300 mg q8h, median (range)
Measurement label: Tmax
Your answer should be a number followed by the unit of measure.

* CCC(=O)N[C@H]1Cc2cccc(C(=O)OCOC(=O)C(CC)CC)c2OB1O | 30 min

Consider now this further compound.
Report Tmax for `CCC(=O)N[C@H]1Cc2cccc(C(=O)O)c2OB1O` please. 60 min

* * *

compounds and their reported Cmax
Assay: Plasma pharmacokinetics on Day 10 after multiple doses of LED-E q8h (VNRX-7145-101 Part 2, VNRX-7145-102 Part 2)
Assay type: in vivo, human
Settings: human, oral; Day 10, LED-E 75 mg q8h; plasma; geometric mean (CV %)
Your answer is read as ng/mL, so omit the unit and give the number.

* CCC(=O)N[C@H]1Cc2cccc(C(=O)OCOC(=O)C(CC)CC)c2OB1O [Ledaborbactam etzadroxil] | 122

We next turn to a different compound, shown below.
I have this compound here, CCC(=O)N[C@H]1Cc2cccc(C(=O)O)c2OB1O [Ledaborbactam, ledaborbactam] , and I need its recorded Cmax. 3690

* * *

Assay: Plasma pharmacokinetics on Day 10 after multiple doses of LED-E q8h (VNRX-7145-101 Part 2, VNRX-7145-102 Part 2)
Assay type: in vivo, human
Details: human, plasma, oral, Day 10, after 10 days of q8h dosing, across dose groups; read-out: Terminal half-life (t1/2) in plasma
Measurement label: half-life

Can you look up the measured half-life of `CCC(=O)N[C@H]1Cc2cccc(C(=O)O)c2OB1O` for me? 11 to 12 h

* * *

Test: Plasma pharmacokinetics after single ascending doses of LED-E (VNRX-7145-101 Part 1)
Type: in vivo
Settings: human, oral, single dose LED-E 500 mg, geometric mean (CV %), read-out: Vz/F
Measurement label: Vd/F (L)
Form entry: value (L) — number only.

Please give the measured Vd/F for this compound: `CCC(=O)N[C@H]1Cc2cccc(C(=O)OCOC(=O)C(CC)CC)c2OB1O` 2640

* * *

Assay: Plasma pharmacokinetics after single ascending doses of LED-E (VNRX-7145-101 Part 1)
Assay type: in vivo
Conditions: human, oral, single dose LED-E 500 mg, geometric mean (CV %)
Measurement label: AUC(0-inf) (ng·h/mL)
Form entry: value (ng·h/mL) — number only.

- CCC(=O)N[C@H]1Cc2cccc(C(=O)OCOC(=O)C(CC)CC)c2OB1O: 1290

# query: AUC(0-inf) of entry `CCC(=O)N[C@H]1Cc2cccc(C(=O)O)c2OB1O` 69300

* * *

Assay: Plasma pharmacokinetics on Day 10 after multiple doses of LED-E q8h (VNRX-7145-101 Part 2, VNRX-7145-102 Part 2)
Assay type: in vivo, human
Conditions: human, oral; Day 10, LED-E 500 mg q8h; plasma; geometric mean (CV %)
Measurement label: Cmax (ng/mL)
// note: answer is a bare numeric in ng/mL

- CCC(=O)N[C@H]1Cc2cccc(C(=O)OCOC(=O)C(CC)CC)c2OB1O [Ledaborbactam etzadroxil]: 919

# Cmax lookup, item CCC(=O)N[C@H]1Cc2cccc(C(=O)O)c2OB1O [Ledaborbactam, ledaborbactam] 15800

* * *

Overview of recorded half-life for various molecules
Assay: Plasma pharmacokinetics after single ascending doses of LED-E (VNRX-7145-101 Part 1)
Format: in vivo
Settings: human, oral, single dose LED-E 100 mg, geometric mean (CV %), read-out: t1/2 (converted)
The figure you give is taken to be in min; do not add the unit.

- CCC(=O)N[C@H]1Cc2cccc(C(=O)O)c2OB1O: 332

Next molecule, half-life to be filled in.
Which half-life value is on record for `CCC(=O)N[C@H]1Cc2cccc(C(=O)OCOC(=O)C(CC)CC)c2OB1O` ? 169

* * *

Measured half-life by item
Experiment: Plasma pharmacokinetics after single ascending doses of LED-E (VNRX-7145-101 Part 1)
Type: in vivo
Details: human, oral, 1000 mg, single dose LED-E 1,000 mg, geometric mean (CV %), read-out: t1/2 (converted)
Please state the figure in min; there is no need to write the unit.

• CCC(=O)N[C@H]1Cc2cccc(C(=O)OCOC(=O)C(CC)CC)c2OB1O [Ledaborbactam etzadroxil] = 275

From here, focus on the item given below.
Request the reported half-life associated with CCC(=O)N[C@H]1Cc2cccc(C(=O)O)c2OB1O [Ledaborbactam, ledaborbactam] 678

* * *

Assay: Plasma pharmacokinetics after single ascending doses of LED-E (VNRX-7145-101 Part 1)
Format: in vivo
Conditions: human, oral, 1000 mg, single dose LED-E 1,000 mg, geometric mean (CV %)
Procedure: Quantitation used separate weighted 1 /x^2 linear least-squares regression analyses generated from calibration standards. Exploratory screening for metabolites was performed for some samples. […] Single-dose plasma pharmacokinetic parameters were determined in Part 1, and both single-dose (Day 1) and multiple-dose ([…]) parameters were determined in Part 2. […]
Measurement label: Cmax (ng/mL)
Write it as a number; the unit ng/mL goes unstated.

* CCC(=O)N[C@H]1Cc2cccc(C(=O)OCOC(=O)C(CC)CC)c2OB1O | 1840

Next molecule, please.
Would you mind telling me what Cmax value was observed for `CCC(=O)N[C@H]1Cc2cccc(C(=O)O)c2OB1O` ? 26500

* * *

Experiment: Plasma pharmacokinetics after single ascending doses of LED-E (VNRX-7145-101 Part 1)
Format: in vivo
Conditions: human, oral, single dose LED-E 100 mg, median (range)
Description: Quantitation used separate weighted 1 /x^2 linear least-squares regression analyses generated from calibration standards. Exploratory screening for metabolites was performed for some samples. […] Single-dose plasma pharmacokinetic parameters were determined in Part 1, and both single-dose (Day 1) and multiple-dose ([…]) parameters were determined in Part 2. […]
Measurement label: Tmax (min)
Numeric only. Scale: min

What does the record list as Tmax for `CCC(=O)N[C@H]1Cc2cccc(C(=O)OCOC(=O)C(CC)CC)c2OB1O` ? 30
